Sourced from patent US20150087627A1

- targetDesc: PI3K δ (Homo sapiens)
- Construct: purchased Upstate / Millipore Corporation
- Sequence (O00329 whole entry): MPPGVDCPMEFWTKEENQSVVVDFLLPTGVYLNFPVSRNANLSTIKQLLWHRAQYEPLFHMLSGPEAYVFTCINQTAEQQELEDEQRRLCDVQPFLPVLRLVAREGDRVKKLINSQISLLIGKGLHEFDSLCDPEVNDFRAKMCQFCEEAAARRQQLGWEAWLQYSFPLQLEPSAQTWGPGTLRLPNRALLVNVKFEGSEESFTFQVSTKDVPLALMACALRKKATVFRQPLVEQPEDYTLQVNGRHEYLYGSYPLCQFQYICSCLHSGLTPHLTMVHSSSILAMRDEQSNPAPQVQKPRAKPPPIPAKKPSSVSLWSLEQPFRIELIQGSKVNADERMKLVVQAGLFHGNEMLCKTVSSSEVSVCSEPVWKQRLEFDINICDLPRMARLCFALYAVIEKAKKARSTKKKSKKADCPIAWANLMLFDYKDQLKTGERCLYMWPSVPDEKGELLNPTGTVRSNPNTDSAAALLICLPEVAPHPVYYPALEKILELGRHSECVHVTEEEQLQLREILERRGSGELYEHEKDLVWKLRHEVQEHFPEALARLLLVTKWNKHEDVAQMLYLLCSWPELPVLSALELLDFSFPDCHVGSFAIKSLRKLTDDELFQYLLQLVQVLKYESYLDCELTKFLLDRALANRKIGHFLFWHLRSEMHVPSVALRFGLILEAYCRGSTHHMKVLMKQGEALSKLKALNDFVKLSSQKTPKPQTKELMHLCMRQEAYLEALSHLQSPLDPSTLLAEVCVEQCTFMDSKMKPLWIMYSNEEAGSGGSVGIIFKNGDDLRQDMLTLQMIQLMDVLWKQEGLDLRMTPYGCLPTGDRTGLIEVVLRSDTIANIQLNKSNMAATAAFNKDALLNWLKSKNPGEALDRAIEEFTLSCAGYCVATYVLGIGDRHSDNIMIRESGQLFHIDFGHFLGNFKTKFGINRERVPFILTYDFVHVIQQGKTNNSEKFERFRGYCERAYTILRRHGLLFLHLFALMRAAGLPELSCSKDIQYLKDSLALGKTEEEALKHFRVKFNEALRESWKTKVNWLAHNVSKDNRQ
- Sequence (P27986 whole entry partner): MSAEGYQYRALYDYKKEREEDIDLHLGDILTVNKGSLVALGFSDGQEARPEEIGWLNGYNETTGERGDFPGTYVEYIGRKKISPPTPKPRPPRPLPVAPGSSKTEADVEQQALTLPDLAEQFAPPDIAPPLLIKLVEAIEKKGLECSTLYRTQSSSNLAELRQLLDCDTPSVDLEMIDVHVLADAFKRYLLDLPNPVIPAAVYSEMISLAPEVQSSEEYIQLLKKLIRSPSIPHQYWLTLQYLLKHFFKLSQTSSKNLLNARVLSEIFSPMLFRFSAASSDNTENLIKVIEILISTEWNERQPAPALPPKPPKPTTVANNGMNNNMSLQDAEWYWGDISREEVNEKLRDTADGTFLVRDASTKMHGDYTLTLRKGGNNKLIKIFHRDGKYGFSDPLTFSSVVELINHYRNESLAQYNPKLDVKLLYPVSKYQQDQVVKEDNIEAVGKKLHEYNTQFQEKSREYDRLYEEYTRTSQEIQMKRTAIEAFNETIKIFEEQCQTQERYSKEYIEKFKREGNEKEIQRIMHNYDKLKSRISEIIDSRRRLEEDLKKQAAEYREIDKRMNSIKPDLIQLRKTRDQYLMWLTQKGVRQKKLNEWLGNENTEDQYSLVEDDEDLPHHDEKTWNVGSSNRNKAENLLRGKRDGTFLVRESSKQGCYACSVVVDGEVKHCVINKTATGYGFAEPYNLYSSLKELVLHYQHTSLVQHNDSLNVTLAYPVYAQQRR
- procedureSummary: PI 3-Kinase (human) HTRF assay, PI3K δ
- Type: biochemical
- experimentalSetup: read-out: PI3K δ IC50
pIC50: −log10 of the molar value.

{"columns": ["molecule", "pIC50"],
 "data": [
  ["Nc1nc2cc(-c3ccc4ncc(N5CCCC5)nc4c3)ccc2o1", "> 6.00"],
  ["C[C@H]1CN(c2cnc3ccc(-c4ccc5nc(N)oc5c4)cc3n2)CCN1", "< 5.00"],
  ["Nc1nc2cc(-c3ccc4ncc(N5CCN(CCO)CC5)nc4c3)ccc2o1", "> 5.00"],
  ["CC(=O)Nc1ncc(-c2ccc3oc(N)nc3c2)s1", "> 5.00"],
  ["O=C(c1cnc2ccc(-c3cncc(S(=O)(=O)Nc4ccccc4)c3)cn12)N1CCOCC1", "< 5.00"],
  ["Nc1nc2cc(-c3ccc4ncc(N5CC(O)C5)nc4c3)ccc2o1", "> 5.00"],
  ["Cn1c(N2CCOCC2)nc2cc(-c3ccc4oc(N)nc4c3)ccc2c1=O", "< 5.00"],
  ["CNc1noc2cc(-c3ccc4ncc(C(=O)N5CCOCC5)n4c3)ccc12", "< 5.00"],
  ["Nc1nc2cc(-c3ccc4ncc(N5CC(C(=O)NC6CC6)C5)nc4c3)ccc2o1", "> 5.00"],
  ["Nc1nc2cc(-c3ccc4ncc(C(=O)N5CCN(C6CC6)CC5)n4c3)ccc2o1", "> 5.00"],
  ["Nc1nc2cc(-c3ccc4ncc(N5CCN(C(=O)[C@@H]6CCCN6)CC5)nc4c3)ccc2o1", "> 7.00"],
  ["Nc1nc2cc(-c3ccc4ncc(S(=O)(=O)N5CCOCC5)n4c3)ccc2o1", "< 5.00"],
  ["CC1CN(C(=O)c2cnc3ccc(-c4ccc5oc(N)nc5c4)cn23)CCO1 (stereo not drawn)", "< 5.00"],
  ["Nc1nc2cc(-c3ccc4nc(N)sc4c3)cc(F)c2o1", "> 6.00"],
  ["Nc1nc2cc(-c3ccc4ncc(C(=O)N5CCC(O)C5)n4c3)ccc2o1 (stereo not drawn)", "> 5.00"],
  ["CN(C(=O)c1cnc2ccc(-c3ccc4oc(N)nc4c3)cn12)C1CCOCC1", "> 5.00"],
  ["Nc1nc2cc(-c3ccc4ncc(N5CCN(C(=O)C6(N)CCC6)CC5)nc4c3)ccc2o1", "> 6.00"],
  ["Nc1nc2cc(-c3ccc4nccc(CCN5CCOCC5)c4c3)ccc2o1", "> 5.00"]
]}
